experiment: Plasma level in mice; assay type: in vivo, male mice (ddY); details: mouse, plasma; 25 mg/kg, im, single dose; 4 hour; read-out: Average plasma conc.
Where a name gives a salt, the structure may show the parent alone.
endpoint.name: concentration at 4 h (ng/mL)
API: value field is a number in ng/mL; no unit string.

INPUT: Given the entry CC1(C)S[C@@H]2[C@H](NC(=O)[C@H](NC(=O)c3c[nH]c4nc(N5CCN(C=O)CC5)ncc4c3=O)c3ccc(O)cc3)C(=O)N2[C@H]1C(=O)O [Compound 1, sodium salt] , report its measured concentration at 4 h.
OUTPUT: 2740

###

Counter-ions that a name gives are not always drawn.
The following are reported MIC results, target or system Shigella flexneri 2a.
Enter your answer as a number in µg/mL; do not include the unit.

Check out these entries, answers already filled in.
INSERT INTO assay_data (compound, result) VALUES
  ('CC1(C)S[C@@H]2[C@H](NC(=O)[C@H](NC(=O)c3c[nH]c4nc(N5CCN(C=O)CC5)ncc4c3=O)c3ccccc3)C(=O)N2[C@H]1C(=O)O [Compound B, sodium salt]', 3.13),
  ('CC(=O)N1CCN(c2ncc3c(=O)c(C(=O)N[C@@H](C(=O)N[C@@H]4C(=O)N5[C@@H]4SC(C)(C)[C@@H]5C(=O)O)c4ccc(O)cc4)c[nH]c3n2)CC1 [Compound 2, sodium salt]', 3.13),
  ('CC1(C)S[C@@H]2[C@H](NC(=O)[C@H](NC(=O)c3c[nH]c4nc(N)ncc4c3=O)c3ccc(O)cc3)C(=O)N2[C@H]1C(=O)O [Compound G, sodium salt]', 3.13),
  ('CN1CCN(c2ncc3c(=O)c(C(=O)N[C@@H](C(=O)N[C@@H]4C(=O)N5[C@@H]4SC(C)(C)[C@@H]5C(=O)O)c4ccc(O)cc4)c[nH]c3n2)CC1 [Compound A, sodium salt]', 0.78),
  ('CC1(C)S[C@@H]2[C@H](NC(=O)[C@H](N)c3ccc(O)cc3)C(=O)N2[C@H]1C(=O)O [Compound M, sodium salt]', 6.25),
  ('CCn1cc(C(=O)O)c(=O)c2cnc(N3CCNCC3)nc21 [Compound J]', 3.13);

INPUT: I am curious: what MIC value has been reported for CNc1ncc2c(=O)c(C(=O)N[C@@H](C(=O)N[C@@H]3C(=O)N4[C@@H]3SC(C)(C)[C@@H]4C(=O)O)c3ccc(O)cc3)c[nH]c2n1 [Compound F, sodium salt] ?
OUTPUT: 3.13

INPUT: Item: CCN1CCN(C(=O)N[C@@H](C(=O)N[C@@H]2C(=O)N3[C@@H]2SC(C)(C)[C@@H]3C(=O)O)c2ccccc2)C(=O)C1=O [Compound H, sodium salt]
OUTPUT: 1.56

INPUT: Now the compound CC1(C)S[C@@H]2[C@H](NC(=O)[C@H](NC(=O)c3c[nH]c4nc(N5CCN(C=O)CC5)ncc4c3=O)c3ccc(O)cc3)C(=O)N2[C@H]1C(=O)O [Compound 1, sodium salt]
OUTPUT: 3.13
